Just for reference, patent US10703764B2 is where these values come from.

target: BRD4 BD1 (Homo sapiens, UniProt O60885); test: AlphaScreen binding assay, BRD4 Bromodomain 1
pIC50: −log10 of the molar value.
Readout type: pIC50

Give one value of pIC50 per listed molecule.
1. CCNS(=O)(=O)c1ccc(-c2ccc3c(c2)N(C(=O)OCC)C[C@H](C)N3C(C)=O)cc1 [Example I-1137]
2. CC(=O)N1c2ccc(-c3ccc(S(=O)(=O)CC4CC4)cc3)cc2N(C(=O)OC2CCCCC2)C[C@@H]1C [Example I-1237]
3. CC(=O)N1c2ccc(-c3ccc(S(=O)(=O)N4CCOCC4)cc3)cc2N(C(=O)c2ccco2)C[C@@H]1C [Example I-275]
4. CC(=O)N1c2ccc(-c3ccc4cnn(C)c4c3)cc2N(C(=O)c2ccco2)C[C@@H]1C [Example I-843]
5. CCS(=O)(=O)Nc1cccc(-c2ccc3c(c2)N(C(=O)c2ccco2)C[C@H](C)N3C(C)=O)c1 [Example I-876]
6. CC(=O)N1c2ccc(-c3ccc(NS(C)(=O)=O)c(F)c3)cc2N(C(=O)C2CC2)C[C@@H]1C [Example I-1180]
7. CC(=O)N1c2ccc(-c3cccc(-c4noc(C)n4)c3)cc2N(C(=O)c2ccco2)C[C@@H]1C [Example I-402]

Result ::
6.00 to 7.00
6.00 to 7.00
5.00 to 6.00
6.00 to 7.00
6.00 to 7.00
6.00 to 7.00
5.00 to 6.00

Batch request: pIC50 for each of the following molecules.
1. CCOC(=O)N1C[C@H](C)N(C(=O)OC)c2ccc(-c3cnn(C4CC4)c3)cc21 [Example I-380]
2. COC(=O)N1c2ccc(-c3cnn(CCN(C)C)c3)cc2N(C(=O)OC(C)C)C[C@@H]1C [Example I-645]
3. CC(C)OC(=O)N1C[C@H](C)N(C(=O)C2CC2)c2ccc(-c3ccc(C(=O)N(C)CC(=O)N(C)C)cc3)cc21 [Example I-560]
4. CCOC(=O)N1C[C@H](C)N(C(C)=O)c2ccc(-c3ccc(S(=O)(=O)N(C)C)cc3)cc21 [Example I-1125]
5. CC(=O)N1c2ccc(-c3cnn(C4CC4)c3)cc2N(C(=O)Oc2cncc(Cl)c2)C[C@@H]1C [Example I-1187]
6. CC(C)OC(=O)N1C[C@H](C)N(C(C)C2CC2)c2ccc(-c3cnn(C4CNC4)c3)cc21 (some centres unmarked) [Example I-357]

Result ::
1: 6.00 to 7.00; 2: 5.00 to 6.00; 3: 6.00 to 7.00; 4: 5.00 to 6.00; 5: 6.00 to 7.00; 6: 5.00 to 6.00

Look at each molecule and report its pIC50.
1. CC(=O)N1c2ccc(-c3ccc(S(=O)(=O)NCCO)cc3)cc2N(C(=O)C2CCC2)C[C@@H]1C [Example I-1036]
2. CC(=O)N1c2ccc(-c3cccc4ccsc34)cc2N(C(=O)c2ccco2)C[C@@H]1C [Example I-873]
3. CC(=O)N1c2ccc(-c3cnn(C4CCOCC4)c3)cc2N(C(=O)OC2CC(F)(F)C2)C[C@@H]1C [Example I-4]

Result ::
5.00 to 6.00
5.00 to 6.00
6.00 to 7.00

List the reported pIC50 of each molecule below.
1. CC(=O)N1c2ccc(-c3ccc(C(=O)N4CCNCC4)cc3)cc2N(C(=O)Oc2ccccc2)C[C@@H]1C [Example I-99]
2. CC(=O)N1c2ccccc2N(S(=O)(=O)c2cn(C)cn2)C[C@@H]1C [Example I-961]
3. COCCn1cc(-c2ccc3c(c2)N(C(=O)OC(C)C)C[C@H](C)N3C(C)=O)cn1 [Example I-17]

Result ::
["> 7.00", "< 5.00", "6.00 to 7.00"]

----------
biological target: BRD4 BD1 (Homo sapiens, UniProt O60885); test: AlphaScreen binding assay, BRD4 Bromodomain 1
pIC50: −log10 of the molar value.
Readout type: pIC50

# annotated cases, reported pIC50 shown
# Sample smiles, Result
measured = [
    ("CC(=O)N1c2ccc(-c3ccc(NS(C)(=O)=O)cc3)cc2N(C(=O)Oc2ccc(F)cc2F)C[C@@H]1C", "6.00 to 7.00"),
    ("COC(=O)N1c2ccc(-c3cnn(CC4CCOCC4)c3)cc2N(C(=O)OC(C)C)C[C@@H]1C", "6.00 to 7.00"),
    ("CC(=O)N1c2ccc(-c3cnn(CCC#N)c3)cc2N(C(=O)Oc2cccnc2)C[C@@H]1C", "5.00 to 6.00"),
]

Turning to the following compound.
Query :: Item under review: CC(=O)N1c2ccccc2N(Cc2ccc(Cl)c(F)c2)C[C@@H]1C . Reported pIC50?
Result :: < 5.00

----------
molecular target: BRD4 BD1 (Homo sapiens); assay: AlphaScreen binding assay, BRD4 Bromodomain 1
Readout type: IC50

# Sample smiles, IC50
rows = [
    ("CC(=O)N1c2ccc(-c3cnc(N(C)C)nc3)cc2N(C(=O)c2ccco2)C[C@@H]1C", "1000 to 10000 nM"),
    ("CC(=O)N1c2ccc(-c3cnn(C4COC4)c3)cc2N(C(=O)Oc2cccnc2)C[C@@H]1C", "< 100 nM"),
]

Okay, here is my list. What is IC50 for each of these?
1. CC(=O)N1c2ccc(-c3cnn(C4CC4)c3)cc2N(c2nn(C)c3cnccc23)C[C@@H]1C
2. CC(=O)N1c2ccc(-c3ccncc3)cc2N(C(=O)c2ccco2)C[C@@H]1C

Result ::
1. 100 to 1000 nM
2. 1000 to 10000 nM

List reported IC50 for each of these molecules:
1. CC(=O)N1c2ccc(-c3cnn(C4CC4)c3)cc2N(C(=O)Oc2ccc3ccncc3c2)C[C@@H]1C
2. CC(=O)N1c2ccccc2N(S(=O)(=O)Cc2ccccc2Cl)C[C@@H]1C
3. CC(=O)N1c2ccccc2N(C(=O)[C@H]2COc3ccccc3O2)C[C@@H]1C
4. CC(=O)N1c2ccc(-c3cnn(C4CC4)c3)cc2N(C(=O)Oc2cccc(Cl)c2)C[C@@H]1C

Result ::
100 to 1000 nM
> 10000 nM
> 10000 nM
100 to 1000 nM

----------
Kindly state pIC50 for each of the entries shown.
target: BRD4 BD1 (Homo sapiens, UniProt O60885); assay: AlphaScreen binding assay, BRD4 Bromodomain 1
pIC50: −log10 of the molar value.

Some solved entries appear below for comparison.
# Sample smiles, pIC50
rows = [
    ("CC(=O)N1c2ccc(-c3ccc(NS(C)(=O)=O)c(F)c3)cc2N(C(=O)C2CCC2)C[C@@H]1C", "5.00 to 6.00"),
    ("CC(=O)N1c2ccc(-c3ccc(S(=O)(=O)C(C)C)cc3)cc2N(C(=O)c2ccco2)C[C@@H]1C", "5.00 to 6.00"),
]

Below are some molecules; for each one, tell me its pIC50.
1. CCOC(=O)N1C[C@H](C)N(C(C)=O)c2ccc(-c3ccc(OC)c(S(=O)(=O)N(CC)CC)c3)cc21
2. CC(=O)N1c2ccccc2N(S(=O)(=O)c2ccccc2Cl)C[C@@H]1C
3. CC(=O)N1c2ccc(-c3cccc(NS(C)(=O)=O)c3)cc2N(C(=O)c2ccco2)C[C@@H]1C
4. CC(=O)N1c2ccccc2N(S(=O)(=O)c2ccccc2C)C[C@@H]1C
5. CC(=O)N1c2ccc(-c3cnn(C4CC4)c3)cc2N(C(=O)Oc2ccc(C)cc2)C[C@@H]1C

Result ::
1. 6.00 to 7.00
2. < 5.00
3. 6.00 to 7.00
4. < 5.00
5. 6.00 to 7.00

----------
Molecular target: BRD4 BD2 (Homo sapiens)
Assay: AlphaScreen binding assay, BRD4 Bromodomain 2
Procedure: The binding of Example compounds to BRD4 Bromodomain 1 and BRD4 Bromodomain 2 was assessed using 384-well AlphaScreen assay technology. His-epitope tagged BRD4 BD144-168 and BRD4 BD2333-460 were cloned, expressed, and purified to homogeneity. BRD4 BD1 and BRD4 BD2 binding and inhibition was assessed by monitoring the engagement of biotinylated Histone H4 (1-21) K5/8/12/16 tetra-acetylated peptide with the targets using the AlphaScreen technology (PerkinElmer). […]
pIC50: −log10 of the molar value.
Field: pIC50. Provide a value for each of the compounds that follow.

# Sample smiles, pIC50
records = [
    ("CC(=O)N1c2ccc(-c3ccc(S(C)(=O)=O)cc3)cc2N(C(=O)OC(C)C)C[C@H]1C", "< 6.30"),
    ("CC(C)OC(=O)N1C[C@H](C)N(C(=O)C2CC2)c2ccc(-c3cnn(CCC(N)=O)c3)cc21", "6.30 to 7.30"),
    ("CC(=O)N1c2ccc(-c3cnn(Cc4c(C)noc4C)c3)cc2N(C(=O)OC(C)C)C[C@@H]1C", "> 7.30"),
]

Now for another entry.
Query :: Report pIC50 for CCN(CC)S(=O)(=O)c1cc(-c2ccc3c(c2)N(C(=O)OC2CCCCC2)C[C@H](C)N3C(C)=O)ccc1OC please.
Result :: 6.30 to 7.30
